Origin of the recorded values: the supplement of paper PMC6555819

Entries and their PBM binding z-score
# Test system: PPARg homodimer (NR concentration 180 nM)
# Method: PBM binding z-score (relative to random genomic background probes); higher = stronger binding; sequences stand for … in GC…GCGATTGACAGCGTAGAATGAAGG
Please give the numeric answer without any surrounding text.

CCTAGTGGGTCAGGAGGTCACACACCGGATATGA	3.37
ACTAACAGGCCAAGGGTCACTCAAGATTAGTCCG	3.04

Task item: Item: `CAGACTAGGTCAAAGGTCAAAGTCGAGCCAACCA` Test system: PPARg homodimer (NR concentration 180 nM) Read-out: PBM binding z-score Value: ?
Reply: 5.71

====

# Test system: LXRb:RXRa (NR concentration 270 nM, RXRa partner concentration 90 nM)
# Method: PBM binding z-score (relative to random genomic background probes); higher = stronger binding; sequences stand for … in GC…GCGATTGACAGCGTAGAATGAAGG
Property label: PBM binding z-score

Here are 5 sequences together with their reported answers.
ATCGAATGGTCGAAGGTGAGTATACCCACCCGAA	-0.362
ATACCAAGGTGATCGTGAGTTCGTTGATACTAAC	0.294
CGAACTAGGTCAAAGTACAGTGAAAGGCGACGTA	2.45
CCTTACGGGTCACTCCAGGTTCTAGCATCGGAGT	2.7
CCGAGTAGGTTACGAGGGGGCATTCACTGCGAAT	6.21

Read the next record carefully.
Task item: Enter reported PBM binding z-score observed with LXRb:RXRa (NR concentration 270 nM, RXRa partner concentration 90 nM) for `CAACCTAGGTCACCGGAAGGTCAAAGTCCGCATG`
Reply: 5.93

====

# Test system: RARg:RXRa (NR concentration 270 nM, RXRa partner concentration 90 nM)
# Method: PBM binding z-score (relative to random genomic background probes); higher = stronger binding; sequences stand for … in GC…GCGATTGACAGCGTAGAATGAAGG
Property label: PBM binding z-score
Lab note: jot down the number only; don't add units.

The examples below pair each entry with its known result.
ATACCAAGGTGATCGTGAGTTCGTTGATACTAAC	0.682
CGAACTAGGTAAAAGGACAGTGAAAGGCGACGTA	0.486
CTATGTAGGTTAAGGAGGTCATTCAGTTTGAAAG	3.89
GATACAGGGTCAATGCCAGAGTACGCGTATTGAT	4.62

Task item: Tell me the measured PBM binding z-score of `CCTTACGGGTCAGTGACAGGTTATAGCATTTGGA` , please.
Reply: 4.61

Task item: Entry `ATCTCTAGGTCAAAGTTCAGTGAATCCCGAGGAT` has what PBM binding z-score?
Reply: 6.01

Task item: Look at this sequence and give its reported PBM binding z-score. `CGAGCTAGGTCACCAGGACAGTGAAGAGGTTGGA`
Reply: 4.21

====

The entries below are paired with their reported PBM binding z-score.
# Test system: THRa:RXRa (NR concentration 90 nM, RXRa partner concentration 90 nM)
# Method: PBM binding z-score (relative to random genomic background probes); higher = stronger binding; sequences stand for … in GC…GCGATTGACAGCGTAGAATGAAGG
Answer with a number only.

Example cases with answers are listed next.
CCTAGTTGGTCAGGTGGTCACACACCGGATATGA	0.254
GGAACTAGGGCAAAGTTGATAGCATCTGTCGACG	0.234
CCTCGGAGGTCAGAAGGTCAGAGCTGTCCGCTTT	3.41
CTATGTAGGTTAAGGGGGTCACTCAGTTTGAAAG	3.79
CTATGTTGGTTAAGGGGGTCATTCAGTTTGAAAG	3.75

// next item, PBM binding z-score requested
Task item: Item: `CCTACTGGGCCAAAGGTCATAGATTCCAATGCTC` Test system: THRa:RXRa (NR concentration 90 nM, RXRa partner concentration 90 nM) Read-out: PBM binding z-score Value: ?
Reply: 3.22

====

# Test system: PPARg:RXRa IVT, anti-PPARg (NR concentration 270 nM, RXRa partner concentration 90 nM)
# Method: PBM binding z-score (relative to random genomic background probes); higher = stronger binding; sequences stand for … in GC…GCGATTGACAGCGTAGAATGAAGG
Entries annotated with measured PBM binding z-score
Please give only the number in your answer, with no unit.

Some entries whose results are on file:
CGTCCAAGGGCAGCAGGTCAGTGAAAGCGACGTG	0.701
ATCTGTAGGTTATCGGGTCATTCAGTTTGCGCAT	5.29
ATACCAAGGTCATCGTGAGGTCGTTGATACTAAC	4.3
CCGACTGGGCCATTCAGAGGTCATTGATCATATG	2.53

Task item: Identify the measured PBM binding z-score of `CCTACTGGGCCAAGGTCATTGACCAGTCAAAGCA` for PPARg:RXRa IVT, anti-PPARg (NR concentration 270 nM, RXRa partner concentration 90 nM).
Reply: 4.84

====

# Test system: PPARg DBDmut IVT, anti-PPARg (DBD mutation: PPARg1 K132A/R137A, NR concentration 270 nM)
# Method: PBM binding z-score (relative to random genomic background probes); higher = stronger binding; sequences stand for … in GC…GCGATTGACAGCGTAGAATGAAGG
Property label: PBM binding z-score
Just the number.

CCTAGTTGGTCAGGAGGTCCCACACCGGATATGA	-0.0969

Task item: Requested field: PBM binding z-score. Item: `ATCGTAAGGTCGTGAGGTGAGTATACAGAAAGGC`
Reply: 1.05

Task item: Please report the recorded PBM binding z-score for `ACTCGGAGGACAAACGTCAGAGCTACGCCAGTGA` .
Reply: -0.00127

Task item: What does the record list as PBM binding z-score for `CCTACTGGGCCAAAGGTCTTTGATTCCAATGCTC` ?
Reply: -0.165

Task item: Param item = `AGAATGAGGTTAAGATTAGGGAAACAGAATACAT` ; retrieve measured PBM binding z-score.
Reply: 1.13

Task item: Give its PBM binding z-score value. Item: `CGAACTAGGACACCAGGACAGTGAAGAGGTTGGA`
Reply: -0.0745

Task item: Suppose we examine the sequence `TAGCCTAAGTCATGGGCCAGTATACCACGCGAAC` ; what PBM binding z-score value has been reported?
Reply: -0.856

Task item: // returns reported PBM binding z-score for input `ATATGTAGGTCAGCTGGGGTCATTCAGACTAGGC`
Reply: 2.2

Task item: Can you look up the measured PBM binding z-score of `CCTTACGGGTCACGGTTATAGCACGGGTGGTACG` for me?
Reply: -0.518

Task item: What value of measured PBM binding z-score is listed for `CGAACTAGGTTAAAGGACAGTGAAAGGCGACGTA` ?
Reply: 0.461

Task item: Would you mind telling me what PBM binding z-score value was observed for `TCTAGTTGGTCATGGAGGTCACACACGACGGGTA` ?
Reply: 1.01

Task item: Field request: PBM binding z-score | item: `CGTCCAAGGTCAAGGGCAGTGAAAGAGACTCGAA`
Reply: -0.438

Task item: Find the recorded PBM binding z-score belonging to `CGTCCAACGTCAAGGTCAGTGAAAGAGACTCGAA` and report it.
Reply: -0.354

Task item: Endpoint output: PBM binding z-score of `CCTGCTCGGTCAATGGTCAGCTAAAGCAGCTCGC` . Value?
Reply: -1.21

Task item: If you can, please state the reported PBM binding z-score value of `TTACCGAGGTGAAAGGTCGTTGATGCACGCCTTG` .
Reply: 0.681

Task item: What measured PBM binding z-score goes with `ATATGTAGATTAGGGTCATTCAGAAAGTAGGGAA` ?
Reply: 1.38

Task item: Return reported PBM binding z-score; argument: `CGAACTAGGTGATTGACAGGACAGTGAATAGTAA`
Reply: 0.609

Task item: Recorded PBM binding z-score of `ATATGTAGGTTAGGGTCATTCAAAAAGTAGGGAA` , please.
Reply: 2.24

Task item: Looking for the measured PBM binding z-score of `CAAACTAGGTCACCGGAAGGTCATAGTCCGCATG` , can you help?
Reply: 3.06

====

Each entry below carries its reported PBM binding z-score.
# Tested on: LXRb homodimer (NR concentration 270 nM)
# Method: PBM binding z-score (relative to random genomic background probes); higher = stronger binding; sequences stand for … in GC…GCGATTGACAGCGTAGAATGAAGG
Lab note: jot down the number only; don't add units.

Below are worked cases with known answers.
CGAACTAGGTCACCAGGACAGTGAGGAGGTTGGA	-0.378
ATACGTAGGTTACATCCGGGTCATTCAGGCTATG	0.366
ATCGAAAGGTCGTGAGGTGAGTACACAGAAAGGC	0.501
CGCACTAGGTCAAAGGACAGTGAAAGGCGACGTA	-0.151
ATATGTAGGTTAGGGTCATTCCGAAAGTAGGGAA	1.53

Would you kindly look at the next entry?
Task item: GET /values?readout=PBM binding z-score&item= `ATATGTAGGTTAGGGTCATTCTGAAAGTAGGGAA`
Reply: 1.8
